- System: Mus musculus
- Assay name: In vivo nicotinic antagonism relative to (+/-)-exo-mecamylamine measured in mice
- Format: functional
Below, each of the molecules is paired with its reported Relative potency value.
Test readout: Relative potency

• CN[C@H]1C2(C)CCC(C2)C1(C)C (single isomer, unassigned; (+)) = 1.9
• CNC1CC2CCC1(C)C2(C)C (racemic) = 8.6
• CN[C@H]1C2(C)CCC(C2)C1(C)C (single isomer, unassigned; (-)) = 6.2
• CNC1(C)C2CCC(C2)C1(C)C (single isomer, unassigned; (+)) [MECAMYLAMINE] = 3
• CNC1C2CCC(C2)C1(C)C (racemic) = 1.2
• CNC1(C)C2CCC(C2)C1(C)C (racemic) [MECAMYLAMINE] = 1
• CN[C@@H]1C2(C)CCC(C2)C1(C)C (single isomer, unassigned; (-)) = 1.7
• CNC1C2CCC(C2)C1C (racemic) = 18.1
• CN(C)C1(C)C2CCC(C2)C1(C)C (racemic) = 1.5
• CN[C@@H]1C2(C)CCC(C2)C1(C)C (single isomer, unassigned; (+)) = 1.2
